# target system: Thyrotropin receptor (Homo sapiens) (UniProt P16473)
# Sequence (P16473 whole entry, looked up): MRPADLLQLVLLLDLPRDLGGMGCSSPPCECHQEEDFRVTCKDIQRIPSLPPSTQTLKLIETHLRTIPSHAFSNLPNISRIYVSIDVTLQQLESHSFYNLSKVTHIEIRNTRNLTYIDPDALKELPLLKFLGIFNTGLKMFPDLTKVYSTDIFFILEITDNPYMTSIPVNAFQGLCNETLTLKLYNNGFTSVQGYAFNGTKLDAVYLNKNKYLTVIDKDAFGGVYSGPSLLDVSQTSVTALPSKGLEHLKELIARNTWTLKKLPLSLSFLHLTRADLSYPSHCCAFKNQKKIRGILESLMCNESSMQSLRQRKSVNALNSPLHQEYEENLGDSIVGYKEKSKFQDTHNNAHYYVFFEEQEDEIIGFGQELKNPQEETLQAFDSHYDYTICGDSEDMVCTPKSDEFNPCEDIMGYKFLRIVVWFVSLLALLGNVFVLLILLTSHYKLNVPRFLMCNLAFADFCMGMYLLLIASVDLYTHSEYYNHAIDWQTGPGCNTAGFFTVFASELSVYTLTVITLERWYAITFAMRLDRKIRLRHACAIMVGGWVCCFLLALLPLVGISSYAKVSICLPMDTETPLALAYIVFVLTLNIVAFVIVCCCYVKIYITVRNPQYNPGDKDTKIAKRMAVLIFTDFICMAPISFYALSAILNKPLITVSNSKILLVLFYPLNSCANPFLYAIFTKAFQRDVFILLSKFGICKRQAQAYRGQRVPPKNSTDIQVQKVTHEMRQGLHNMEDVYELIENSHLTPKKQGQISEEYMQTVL
# experiment summary: qHTS assay to identify small molecule antagonists of the thyroid stimulating hormone receptor (TSHR) signaling pathway (AID 1259385); note: nearly all actives have a fitted effect of over 20% in size
# applied conditions: TSHR-HEK293 cAMP HTRF, TSH-stimulated antagonist mode; series mostly up to 92.4 µM
Records with an inconclusive call do not appear. The source made the active and inactive calls. Calls come from the whole dose curve.
Hi there, use one of these labels in your reply, thanks! YES = active, NO = inactive

Q) What is the recorded call for this molecule in the test? O=C(c1ccc(O)cc1O)c1ccc(O)cc1O
A) NO

Q) Per the assay record, what outcome was assigned to Clc1ccccc1C(c1ccccc1)(c1ccccc1)n1ccnc1 ?
A) YES

Q) # lookup: test call for CCCCCCCCCCC=O
A) NO

Q) Recorded call for C/C(=C(/OCCOc1ccc(Cl)cc1)c1ccc(Cl)cc1Cl)n1ccnc1 ?
A) NO

Q) Tell me the recorded outcome of this test for Cc1ccc(O)c2ncccc12 .
A) NO

Q) Tell me the recorded outcome of this test for Oc1c(Cl)cc(Cl)c2cccnc12 .
A) NO

Q) Identify the outcome logged in this assay for the molecule shown: CCCCCCCCOc1ccccc1C(=O)Nc1ccc(C(=O)OCC[N+](C)(CC)CC)cc1
A) NO

Q) Dear all, I need the recorded test outcome for CC(=O)OCC(C)OC(C)=O (configuration not stated) , thank you.
A) NO

Q) Just curious, what result did Cc1cc(C2CCCCC2)n(O)c(=O)c1 get here?
A) NO

Q) Dear all, I need the recorded test outcome for CCC(C)(C)C1CCCCC1OC(C)=O (configuration not stated) , thank you.
A) NO

Q) Dear colleague, could you share the recorded outcome for Cc1c(C)c2c(c(C)c1OC(=O)CCC(=O)O)CC[C@@](C)(CCC[C@H](C)CCC[C@H](C)CCCC(C)C)O2 when you have a moment?
A) NO

Q) What outcome does the record of this test show for CC(C)(C)CC(C)(C)c1ccc(O)c(Cc2ccc(Cl)cc2Cl)c1 ?
A) NO

---

# experiment summary: qHTS assay to identify small molecule antagonists of the thyroid receptor (TR) signaling pathway - cell viability counter screen (AID 743064); note: nearly all actives have a fitted effect of over 50% in size; note: potency is the fitted concentration of half-maximal effect
# applied conditions: GH3.TRE-Luc viability, CellTiter-Fluor, 24 h; series mostly up to 70.3 µM
Records with an inconclusive call do not appear. Activity calls are given as the source filed them. Calls come from the whole dose curve; as a rule, active = well fitted cell-killing curve with a large enough effect in the repeat runs; inconclusive = weak or mixed curves, or effect the other way; inactive = no such curve, though single readings can be large or run the other way.
measure name: Potency

Please review the entries below; each comes with its answer.
Cc1cc(O)c(C(C)(C)C)cc1C(C)(C)C    24.3 µM (active)
OCc1c[nH]c2ccccc12    62.9 µM (active)
CCCCCCCCCCCC[N+](C)(C)CCCCCCCCCCCC    24.3 µM (active)
O=S1(=O)CC(Cl)(Cl)C(Cl)(Cl)C1    1.93 µM (active)
CCCCCCCCNC(C)C(O)c1ccc(SC(C)C)cc1 (configuration not stated)    5.31 µM (active)

Query CCOC(=O)O[C@]1(C(=O)OCCl)CC[C@H]2[C@@H]3CCC4=CC(=O)C=C[C@]4(C)[C@H]3[C@@H](O)C[C@@]21C yields Potency of inactive

response.value for CCCCC(CC)CN=C(N)NC(N)=NCCCCCCN=C(N)NC(N)=NCC(CC)CCCC (configuration not stated) (field: Potency) = 7.5 µM (active)

Entry CSc1cnc(C)cn1 , Potency reported as inactive

The value of Potency measured for the compound O=C(OCC1CO1)C1CCCCC1C(=O)OCC1CO1 (configuration not stated) turned out to be 54.5 µM (active)

Entry N=C1N=C(N)c2ccccc21 , Potency reported as 21.7 µM (active)

The compound identified as Oc1ccc2c(c1)-c1ccccc1C2 registered its Potency at inactive

response.value for C[C@H]1[C@H]2CC[C@H]3[C@@H]4CC=C5C[C@@H](N(C)C)CC[C@]5(C)[C@H]4CC[C@]23CN1C (field: Potency) = inactive

---

# experiment summary: qHTS assay to identify small molecule antagonists of the estrogen receptor alpha (ER-alpha) signaling pathway using the BG1 cell line in the presence of 0.1 nM 17-beta-estradiol - cell viability counter screen (AID 1259241); note: nearly all actives have a fitted effect of over 40% in size; note: potency is the fitted concentration of half-maximal effect
# applied conditions: VM7Luc4E2 (BG1) viability, CellTiter-Fluor protease, 22 h, 0.1 nM estradiol agonist added; series mostly up to 92.4 µM
# From the text: National Center for Advancing Translational Sciences [NCATS] NIH Chemical Genomics Center [NCGC] U.S. Environmental Protection Agency [EPA] National Institutes of Environmental Health Sciences [NIEHS] National Toxicology Program [NTP] U.S. Food and Drug Administration [FDA] Estrogen receptor (ER), a member of the nuclear hormone receptor plays an important role in development, metabolic homeostasis and reproduction. […]
Records with an inconclusive call do not appear. Active and inactive are the calls of the source. Calls come from the whole dose curve; as a rule, active = well fitted cell-killing curve with a large enough effect in the repeat runs; inconclusive = weak or mixed curves, or effect the other way; inactive = flat fitted curve, though single readings scatter.
measure name: Potency

O=C(NOCC1CC1)c1ccc(F)c(F)c1Nc1ccc(I)cc1Cl    inactive
NC(=NCCCCCCN=C(N)/N=C(\N)Nc1ccc(Cl)cc1)/N=C(\N)Nc1ccc(Cl)cc1    inactive
C/C=C(\C)C(=O)OCc1ccccc1    inactive
Cc1nc(-c2ccc3c(c2)CCN(CCC2CCC(NC(=O)/C=C/c4ccc(F)cc4)CC2)CC3)no1 (stereo unspecified)    inactive
CCCCCCCCCCC=O    inactive

Per the record, CCC(CN)=C(c1ccccc1)c1ccccc1 has Potency of inactive

Item: Cc1cc(CCN2CCN(c3nsc4ccccc34)CC2)cc2c1NC(=O)CC2(C)C | Potency: 34.4 µM (active)

---

# target system: Nuclear receptor subfamily 1 group I member 2 (Homo sapiens) (UniProt O75469)
# Sequence (O75469 whole entry, looked up): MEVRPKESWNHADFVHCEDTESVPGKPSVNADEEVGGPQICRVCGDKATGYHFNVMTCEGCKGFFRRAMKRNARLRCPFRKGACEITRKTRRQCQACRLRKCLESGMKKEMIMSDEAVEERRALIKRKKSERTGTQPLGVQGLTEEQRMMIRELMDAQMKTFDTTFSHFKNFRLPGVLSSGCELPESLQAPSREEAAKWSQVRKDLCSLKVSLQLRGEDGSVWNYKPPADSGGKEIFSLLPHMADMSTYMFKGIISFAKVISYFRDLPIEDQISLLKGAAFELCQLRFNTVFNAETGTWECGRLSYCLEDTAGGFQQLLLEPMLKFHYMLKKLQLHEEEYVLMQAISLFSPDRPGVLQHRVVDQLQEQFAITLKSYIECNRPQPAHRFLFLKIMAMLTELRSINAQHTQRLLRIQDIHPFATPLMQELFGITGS
# experiment summary: Human pregnane X receptor (PXR) small molecule agonists, qHTS assay (AID 1346982); note: nearly all actives have a fitted effect of over 35% in size
# applied conditions: PXR-Luc HepG2, CYP3A4 luciferase reporter, 24 h; series mostly up to 92.4 µM
Results filed as inconclusive are left out. The source made the active and inactive calls. The call rests on the fitted dose curve; in most records, active means well fitted activation curve with a large enough effect in the repeat runs; inconclusive means weak or mixed curves; inactive means no such curve, though single readings can be large or run the other way.
Outcome (select one): active, inactive

Q) Assay outcome for COc1cc(-c2nc(NC(=O)c3cc4cc(C)cc(C)c4n3CC(=O)O)sc2CCC2CCCCC2)c(OC)cc1Cl : what was it?
A) active

Q) # fetch the recorded call for C[n+]1ccn(Cc2ccccc2)c1 here
A) active

Q) Which outcome did this test record for the molecule CCN(C(=O)c1cc(C)cc(OC[C@H](C)Nc2ccncc2)c1)C(C)C ?
A) active

Q) What did the test return for O=C(Nc1cccc([N+](=O)[O-])c1)c1cc2ccccc2cc1O ?
A) active

Q) For C1CCCC1 , what call appears in the results of this test?
A) inactive

Q) Outcome logged for CCN(C(=O)N(CC)c1ccccc1)c1ccccc1 in this assay:
A) active

---

# experiment summary: qHTS assay to identify small molecule agonists of the endoplasmic reticulum stress response signaling pathway - cell viability counter screen (AID 1159517); note: nearly all actives have a fitted effect of over 50% in size
# applied conditions: ESRE-bla HeLa viability, CellTiter-Glo luminescence, 5 h; series mostly up to 61 µM
Results filed as inconclusive are left out. The source made the active and inactive calls. The call rests on the fitted dose curve.
Can you answer with just one of these options? 1 (yes) for active, 0 (no) for inactive

Q) Can you look up the reported call for O=C(O)c1c(Cl)cccc1Cl for me?
A) 0 (no)

Q) Which outcome did this test record for the compound [O-][n+]1ccccc1SSc1cccc[n+]1[O-] ?
A) 1 (yes)

Q) In this assay, the call recorded for O=c1c(-c2ccccc2)c1-c1ccccc1 was what?
A) 0 (no)

Q) Short answer needed: outcome of this test for Oc1ccc2c(c1)-c1ccccc1C2 ?
A) 0 (no)

Q) // outcome(item) with item = CCCC1O[C@@H]2C[C@H]3[C@@H]4CCC5=CC(=O)C=C[C@]5(C)[C@H]4[C@@H](O)C[C@]3(C)[C@]2(C(=O)CO)O1 (some centres undefined)
A) 0 (no)

Q) How was CCCCCCCC[P+](CCCCCCCC)(CCCCCCCC)CCCCCCCC classified in this test?
A) 1 (yes)

Q) I would be grateful if you could indicate the recorded call for CCCCCOc1ccccc1/C(=C\SC)n1ccnc1 .
A) 0 (no)

Q) Can you look up the reported call for C[n+]1ccn(Cc2ccccc2)c1 for me?
A) 0 (no)

Q) Name the outcome recorded for CC(C)(C)C(=O)OCOC(=O)C1N2C(=O)CC2S(=O)(=O)C1(C)C (centres undefined) in the assay.
A) 0 (no)

Q) Status in this test for Clc1ccc2n[nH]nc2c1 ?
A) 0 (no)

Q) # lookup: test call for CCCCCCCCOc1ccccc1C(=O)Nc1ccc(C(=O)OCC[N+](C)(CC)CC)cc1
A) 0 (no)

Q) Could you please tell me the result logged for C/C=C(\C)C(=O)OCc1ccccc1 in this assay?
A) 0 (no)

Q) I would be grateful if you could indicate the recorded call for CCCCCCOC(=O)c1ccc(O)cc1 .
A) 1 (yes)

Q) Dear colleague, could you share the recorded outcome for CC(=O)S[C@@H]1CC2=CC(=O)CC[C@]2(C)[C@H]2CC[C@@]3(C)[C@@H](CC[C@@]34CCC(=O)O4)[C@H]12 when you have a moment?
A) 0 (no)

Q) Please share the test call associated with CCCCCCCCCCCCCC[P+](CCCC)(CCCC)CCCC (tested in a mixture with another compound) .
A) 1 (yes)

Q) So what was the verdict on Oc1cccc2cc3cccc(O)c3c(O)c12 in this test?
A) 0 (no)

Q) Name the outcome recorded for Cc1cc(O)c(C(C)(C)C)cc1C(C)(C)C in the assay.
A) 1 (yes)

Q) So what was the verdict on CC(C)(C)CC(C)(C)c1ccc(O)c(Cc2ccc(Cl)cc2Cl)c1 in this test?
A) 1 (yes)

Q) Any idea what this test logged for CCCCCCCC/C=C\CCCCCCCCOCCO ?
A) 1 (yes)

Q) Short answer needed: outcome of this test for COCCCC/C(=N\OCCN)c1ccc(C(F)(F)F)cc1 ?
A) 0 (no)

Q) Recorded test call requested for CCCCN(CCCC)c1ccc(C(=O)c2ccccc2C(=O)O)c(O)c1
A) 1 (yes)

Q) Per the records of this test, what outcome belongs to CCCCCCCCCCn1cc[n+](CCCCCCCCCC)c1C ?
A) 1 (yes)

Q) Which result was noted for this compound in the test: CCCCCCCC[N+](CCCCCCCC)(CCCCCCCC)CCCCCCCC
A) 1 (yes)

Q) Tell me the recorded outcome of this test for CCC(C)(C)C1CCCCC1OC(C)=O (centres undefined) .
A) 0 (no)
